Biological target: CCDC19
Test: pooled miR-30 sensor sort-seq; sequence = guide strand; note: reference of the scale not given here
Details: shRNA
Measured sensor-assay potency score (higher = more potent) by item
measurement-kind: sensor-assay potency score (higher = more potent)

- sequence-code: "TTAGCATTGAGGATAATCTTGC"
  observed-measurement: 0.12
- sequence-code: "TTCTTTTTGGATCTGCTGCTTC"
  observed-measurement: -0.755
- sequence-code: "TTCTGCGCCACTCTCTGTCTGC"
  observed-measurement: -0.303
- sequence-code: "TTGGATCTGCTGCTTCTCCAGG"
  observed-measurement: -1.06

###

Molecular target: CD58
Test: pooled miR-30 sensor sort-seq; sequence = guide strand
Settings: shRNA
measurement-kind: sensor-assay potency score (higher = more potent)

- sequence-code: "TTCATATACAGCACAATACATG"
  observed-measurement: -1.42
- sequence-code: "TTGTTTTTTCCATAGGACCTCT"
  observed-measurement: -0.0433
- sequence-code: "TACATGTTGTAATTACTGCTAA"
  observed-measurement: -0.161
- sequence-code: "TACAGCACAATACATGTTGTAA"
  observed-measurement: -0.704
- sequence-code: "TTTGTTGGGAAAAACAGCTGAT"
  observed-measurement: -0.0646
- sequence-code: "TAAAATAATTTAGTTATGCTGT"
  observed-measurement: -0.222
- sequence-code: "TATAAGTGCATATCTGTGTCTT"
  observed-measurement: 0.724
- sequence-code: "TTCTTCTTAAAGCAGCTGCTTC"
  observed-measurement: -0.594
- sequence-code: "TTTCATACTCATCTTCATCTGA"
  observed-measurement: 0.555
- sequence-code: "TAATGCTCTGGTATCATGCATT"
  observed-measurement: -0.599

###

Molecular target: TMEM140
Experiment: pooled miR-30 sensor sort-seq; sequence = guide strand
Conditions: shRNA
Quick rule for you: sensor-assay potency score (higher = more potent) at -0.8 or higher means Y, lower means N.

- sequence-code: "TAGAAGCCGATTCTCAGGTTGG"
  label-class: "Y"
- sequence-code: "ATGCTCATGAACAGCAGCTGGT"
  label-class: "N"
- sequence-code: "TATGATGCTCATGAACAGCAGC"
  label-class: "Y"
- sequence-code: "TCTCTCATCACTGTTGCACTGG"
  label-class: "Y"
- sequence-code: "TTATAGAAGCCGATTCTCAGGT"
  label-class: "Y"
- sequence-code: "AAGAGCGTAAAACATCAGGCAG"
  label-class: "N"

###

Biological target: DCX
Experiment: pooled miR-30 sensor sort-seq; sequence = guide strand
Settings: shRNA
# sensor-assay potency score (higher = more potent) values compiled below
measurement-kind: sensor-assay potency score (higher = more potent)

- sequence-code: "TATTCATCTTGTTTTCTCCTGG"
  observed-measurement: 0.366
- sequence-code: "ATTCTTGGTGTACTCCACCTTT"
  observed-measurement: -0.629
- sequence-code: "TCAATTATTAGTATTTAGCTGA"
  observed-measurement: 0.00518
- sequence-code: "TTGATCACAATGCTGTTCCTTA"
  observed-measurement: 0.503
- sequence-code: "TTAAAGAACTTACCACACGTGG"
  observed-measurement: -0.728
- sequence-code: "AATGACATTACACACATCTTGC"
  observed-measurement: -0.654
- sequence-code: "TCTAGTAGTACATATACCGCAA"
  observed-measurement: 0.223
- sequence-code: "TTTCTGGCTATAACTATTCTAA"
  observed-measurement: -0.801
- sequence-code: "TAAATTAACACCTACAATCTGG"
  observed-measurement: -0.105
- sequence-code: "TTGGGATTGACATTCTTGGTGT"
  observed-measurement: 0.0923
- sequence-code: "TTCGGTAGAAGCTACAGTGGGC"
  observed-measurement: 0.324
- sequence-code: "TAGAGTTTTTTGACAACCCCGG"
  observed-measurement: -0.351
- sequence-code: "TACAACTGTAAGACAACTGGGA"
  observed-measurement: 0.406
- sequence-code: "TTTCATTTAAATCAACTCCGAT"
  observed-measurement: -0.0704
- sequence-code: "TTGAATGCTGCGAATCTTCAGC"
  observed-measurement: -0.1
- sequence-code: "TTCATTTAAATCAACTCCGATT"
  observed-measurement: -0.375
- sequence-code: "TTAACACCTACAATCTGGCTTC"
  observed-measurement: 0.157

###

Target: LYPD3
Assay: pooled miR-30 sensor sort-seq; sequence = guide strand
Conditions: shRNA
Quick list: sensor-assay potency score (higher = more potent) per entry.
measurement-kind: sensor-assay potency score (higher = more potent)

- sequence-code: "TCTGCTTTCTGCACGCAGCTGT"
  observed-measurement: 0.703
- sequence-code: "TCTTGTTCGGGGAGCATCCGTC"
  observed-measurement: -0.769
- sequence-code: "TGCACTCTCATTACCTGCCGGG"
  observed-measurement: -0.389
- sequence-code: "TCATCCTGGACACAGCCCCGGA"
  observed-measurement: -1.53
- sequence-code: "TCATCTGCTTTCTGCACGCAGC"
  observed-measurement: -1.43
- sequence-code: "ACTGTCTTCATCTTGTTCGGGG"
  observed-measurement: 0.213
- sequence-code: "TAGAAGTGGTGACAGATGTGGT"
  observed-measurement: -0.342

###

Target: C15orf39
Experiment: pooled miR-30 sensor sort-seq; sequence = guide strand
Settings: shRNA
measurement-kind: sensor-assay potency score (higher = more potent)

- sequence-code: "TACACAGTCGCGCCACTGCAGG"
  observed-measurement: -1.54
- sequence-code: "ATAGAGAGAGAGGTCATCCCGG"
  observed-measurement: -0.641
- sequence-code: "TTCAGCATGCGTGAGGTGCAGC"
  observed-measurement: -0.396
- sequence-code: "TTGTCAATGACAGGCATTGGTG"
  observed-measurement: -1.34
- sequence-code: "TACCGGTAGAGTACAAGGGTGG"
  observed-measurement: -0.811
- sequence-code: "TTGTCCTGACCTTCACTGGTGG"
  observed-measurement: -0.545

###

Target: KIAA0564
Experiment: pooled miR-30 sensor sort-seq; sequence = guide strand
Conditions: shRNA
Please map values of sensor-assay potency score (higher = more potent) to classes as shown: LOW: < -1; MEDIUM: ≥ -1 and < 0.2; HIGH: ≥ 0.2

- sequence-code: "TTGAATATAACAACTTAAGTTG"
  label-class: "MEDIUM"
- sequence-code: "TTGTGGAGGAGTAACATCTTTT"
  label-class: "LOW"
- sequence-code: "ATCAACAGTAACAACACCGCTT"
  label-class: "HIGH"
- sequence-code: "TTTGCCAGAACAATCATCCTAA"
  label-class: "HIGH"
- sequence-code: "TCTTTGTAGAACACCAGCCAGT"
  label-class: "MEDIUM"
- sequence-code: "TAGTCTTTGCTTATTGTCCTTG"
  label-class: "MEDIUM"
- sequence-code: "TAACAACTTAAGTTGGTCCTTG"
  label-class: "HIGH"
- sequence-code: "TAGAACATCCAGCACAGTCAGG"
  label-class: "LOW"

###

Target: FEZ1
Experiment: pooled miR-30 sensor sort-seq; sequence = guide strand
Settings: shRNA
sensor-assay potency score (higher = more potent) values for the sequences below.
measurement-kind: sensor-assay potency score (higher = more potent)

- sequence-code: "TTGTCTGTCAGAGCATCCCAAA"
  observed-measurement: -1.44
- sequence-code: "TTTAAATACATGTCGGAGGTTA"
  observed-measurement: 0.312
- sequence-code: "TCAAACTCCAGCTCGTCCCGGC"
  observed-measurement: 0.386
- sequence-code: "TTTATTTCAAAATTAGTCTTAA"
  observed-measurement: -0.684
- sequence-code: "TAGTCTTAAGAGTATAAGCTGT"
  observed-measurement: -0.799
- sequence-code: "TTGAAGCTGATTATTTCGGAAG"
  observed-measurement: -0.859
- sequence-code: "TGAACCATAGAAACACTGGGGC"
  observed-measurement: 0.345
- sequence-code: "ATGAACCATAGAAACACTGGGG"
  observed-measurement: -0.474
- sequence-code: "ATTACTAGCACTAGAAGCCAAC"
  observed-measurement: -1.45

###

Reported sensor-assay potency score (higher = more potent) by item:
Target: ARL8B
Test: pooled miR-30 sensor sort-seq; sequence = guide strand
Details: shRNA
measurement-kind: sensor-assay potency score (higher = more potent)

- sequence-code: "TATCTTCACTGAATTGACCTGA"
  assay-target: "ARL8B"
  observed-measurement: 0.755
- sequence-code: "TTTCTCTATCCTGAATAGCAGA"
  assay-target: "ARL8B"
  observed-measurement: -1.1
- sequence-code: "TAATTCTAGGATTATAGCCAAG"
  assay-target: "ARL8B"
  observed-measurement: -1.33
- sequence-code: "TTTCCAAGCACTAGCACTGGAA"
  assay-target: "ARL8B"
  observed-measurement: -1.03
- sequence-code: "TTGAATAGCAGCAAATTTCTCT"
  assay-target: "ARL8B"
  observed-measurement: 0.213
- sequence-code: "TAAACAATAGCATTGACTCCTC"
  assay-target: "ARL8B"
  observed-measurement: -0.391
- sequence-code: "TTTCACGATCTGCAGCATCTAT"
  assay-target: "ARL8B"
  observed-measurement: -0.778
